Below is a list of entries, each paired with its recorded GI50 value.
System: UACC-257
assayProtocol: NCI tumour cell line growth inhibition, 48 h
The source made the active and inactive calls. No stated cut-off is given here; in the data, active = GI50 up to about 1.1 µM and inactive = higher.

- compound: "CC(C)(C)c1cc(/C=C/C(=O)CC(=O)/C=C/c2cc(C(C)(C)C)c(O)c(C(C)(C)C)c2)cc(C(C)(C)C)c1O"
  experimentalResult: "> 50 µM (inactive)"
- compound: "COC(=O)C1CCC(=O)N1C(c1ccc(OC)cc1)c1ccc(OC)cc1 (configuration not stated)"
  experimentalResult: "> 100 µM (inactive)"

Recorded GI50 for CC(C)N1[C@@H]2CCCC[C@H]2N(C(C)C)P1(=O)C(=O)/C=C/c1ccccc1 , please?
3.08 µM (inactive)

Recorded GI50 for COC(=O)C1=C(O)c2ccc(Cl)cc2S(=O)(=O)N1C , please?
93.3 µM (inactive)

Recorded GI50 for N#Cc1c(NC(=S)NC(=O)c2ccccc2)nc2c(c1-c1ccccc1)CCCC2 , please?
> 100 µM (inactive)

Recorded GI50 for COC1OC(C)C(NC(=O)OCC(Cl)(Cl)Cl)C2OC(C)(C)OC12 (configuration not stated) , please?
> 100 µM (inactive)

Recorded GI50 for COC1OC(CO)C(O)C(OC(C)=O)C1NC(=O)N(CCCl)N=O (configuration not stated) , please?
> 100 µM (inactive)
